Tgt: UniProt P31652
Assay name: Affinity at rat serotonin transporter using [125I]RTI-55 displacement.
Assay metric: Ki (nM)
The figure you give is taken to be in nM; do not add the unit.

{"Smiles repr": "Fc1ccc(C(OCCC2CCN(Cc3ccc4ccccc4c3)CC2)c2ccc(F)cc2)cc1", "Ki [nM]": 88}
{"Smiles repr": "COc1cccc(CN2CCC(CCOC(c3ccc(F)cc3)c3ccc(F)cc3)CC2)c1", "Ki [nM]": 161}
{"Smiles repr": "O=[N+]([O-])c1ccc(CN2CCC(CCOC(c3ccccc3)c3ccccc3)CC2)cc1", "Ki [nM]": 2150}
{"Smiles repr": "Fc1ccc(CN2CCC(CCOC(c3ccccc3)c3ccccc3)CC2)cc1", "Ki [nM]": 902}
{"Smiles repr": "Brc1ccc(CN2CCC(CCOC(c3ccccc3)c3ccccc3)CC2)cc1", "Ki [nM]": 988}
{"Smiles repr": "Cc1ccc(CN2CCC(CCOC(c3ccc(F)cc3)c3ccc(F)cc3)CC2)cc1", "Ki [nM]": 239}
{"Smiles repr": "Fc1ccc(C(OCCC2CCN(Cc3ccc(Br)cc3)CC2)c2ccc(F)cc2)cc1", "Ki [nM]": 199}
{"Smiles repr": "Fc1ccc(CN2CCC(CCOC(c3ccc(F)cc3)c3ccc(F)cc3)CC2)cc1", "Ki [nM]": 245}

Entry COc1ccccc1CN1CCC(CCOC(c2ccc(F)cc2)c2ccc(F)cc2)CC1 ; Ki = 248

Entry Fc1ccc(C(OCCC2CCN(Cc3ccc(Cl)cc3)CC2)c2ccc(F)cc2)cc1 ; Ki = 238

###

Tgt: Sodium-dependent serotonin transporter (Rattus norvegicus, UniProt P31652)
Sequence (P31652 whole entry): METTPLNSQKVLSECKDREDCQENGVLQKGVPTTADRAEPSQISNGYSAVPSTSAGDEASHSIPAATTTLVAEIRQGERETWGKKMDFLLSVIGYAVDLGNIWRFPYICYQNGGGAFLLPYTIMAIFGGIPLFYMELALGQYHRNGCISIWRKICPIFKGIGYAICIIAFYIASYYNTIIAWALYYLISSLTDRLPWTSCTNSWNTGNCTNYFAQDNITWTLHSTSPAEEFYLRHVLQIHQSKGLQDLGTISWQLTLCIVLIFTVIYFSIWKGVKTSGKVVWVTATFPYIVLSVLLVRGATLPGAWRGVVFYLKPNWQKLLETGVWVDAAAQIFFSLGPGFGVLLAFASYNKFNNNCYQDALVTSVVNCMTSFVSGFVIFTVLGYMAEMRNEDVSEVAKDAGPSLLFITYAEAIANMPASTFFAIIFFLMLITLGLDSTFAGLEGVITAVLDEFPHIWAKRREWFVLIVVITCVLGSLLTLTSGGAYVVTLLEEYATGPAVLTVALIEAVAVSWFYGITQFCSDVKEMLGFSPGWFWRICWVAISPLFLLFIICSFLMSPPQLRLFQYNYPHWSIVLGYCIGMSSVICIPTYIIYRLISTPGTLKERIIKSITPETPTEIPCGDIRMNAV
Assay name: Affinity at rat serotonin transporter using [125I]RTI-55 displacement.
pKi values, listed per item
Remember, pKi is on a log scale: it is -log10 of the molar concentration.

{"Smiles repr": "COc1ccc(CN2CCC(CCOC(c3ccc(F)cc3)c3ccc(F)cc3)CC2)cc1", "pKi": 6.58}
{"Smiles repr": "Fc1ccc(C(OCCC2CCN(Cc3ccc(C(F)(F)F)cc3)CC2)c2ccc(F)cc2)cc1", "pKi": 6.35}
{"Smiles repr": "Fc1ccc(C(OCCC2CCN(Cc3ccccc3)CC2)c2ccc(F)cc2)cc1", "pKi": 6.77}
{"Smiles repr": "N#Cc1ccc(CN2CCC(CCOC(c3ccc(F)cc3)c3ccc(F)cc3)CC2)cc1", "pKi": 6.22}
{"Smiles repr": "Fc1ccc(C(OCCC2CCN(Cc3cccc4ccccc34)CC2)c2ccc(F)cc2)cc1", "pKi": 6.43}
{"Smiles repr": "Clc1ccc(CN2CCC(CCOC(c3ccccc3)c3ccccc3)CC2)cc1", "pKi": 6.27}
{"Smiles repr": "Fc1ccc(C(OCCC2CCN(Cc3ccc(I)cc3)CC2)c2ccc(F)cc2)cc1", "pKi": 6.69}
{"Smiles repr": "FC(F)(F)c1ccc(CN2CCC(CCOC(c3ccccc3)c3ccccc3)CC2)cc1", "pKi": 5.64}
{"Smiles repr": "Ic1ccc(CN2CCC(CCOC(c3ccccc3)c3ccccc3)CC2)cc1", "pKi": 6.34}
{"Smiles repr": "O=[N+]([O-])c1ccc(CN2CCC(CCOC(c3ccc(F)cc3)c3ccc(F)cc3)CC2)cc1", "pKi": 6.41}

Continue with the molecule presented below.
Entry N#Cc1ccc(CN2CCC(CCOC(c3ccccc3)c3ccccc3)CC2)cc1 ; pKi = 5.65
